All figures here come from patent EP1899377B1.

Reported koff values follow for various binders
- tgt: T1, GST-human NOGO-A56 (human, UniProt Q9NQC3 586-785)
- T1 construct: GST-tagged fusion expressed in E. coli BL21 from pGEX-6P1; also called hNOGO; human NOGO 5+6 GST; not shown: Glutathione S-transferase tag encoded by vector pGEX-6P1 (N-terminal, with vector linker)
- T1 sequence: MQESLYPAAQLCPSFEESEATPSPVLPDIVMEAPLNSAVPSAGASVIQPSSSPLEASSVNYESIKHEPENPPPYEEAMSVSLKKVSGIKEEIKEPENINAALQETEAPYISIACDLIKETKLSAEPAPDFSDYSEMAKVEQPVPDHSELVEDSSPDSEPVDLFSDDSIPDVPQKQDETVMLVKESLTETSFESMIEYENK
- measurement protocol: SPR off-rate ranking, supernatant from small-scale transient transfection over immobilised GST-human NOGO-A56; single experiment
Give the value, in units of s⁻¹, as a plain number.

*Q* Returns the measured koff for the input binder. Input: H1L11 (antibody, human IgG1, kappa, V domains shown) VH: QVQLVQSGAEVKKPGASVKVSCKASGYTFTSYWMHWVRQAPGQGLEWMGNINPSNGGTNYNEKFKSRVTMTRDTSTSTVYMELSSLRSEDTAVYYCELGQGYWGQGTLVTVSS VL: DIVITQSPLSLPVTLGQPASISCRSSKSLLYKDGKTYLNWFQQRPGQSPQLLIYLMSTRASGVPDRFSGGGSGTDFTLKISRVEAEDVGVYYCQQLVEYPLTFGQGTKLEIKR
*A* 0.0196

*Q* Input H16L18 (antibody, human IgG1, kappa, V domains shown) VH: QVQLVQSGAEVKKPGASVKVSCKASGYTFTSYWMHWVKQRPGQGLEWIGNINPSNGGTNYNEKFKSKATLTVDKSTSTAYMELSSLRSEDTAVYYCELGQGYWGQGTLVTVSS VL: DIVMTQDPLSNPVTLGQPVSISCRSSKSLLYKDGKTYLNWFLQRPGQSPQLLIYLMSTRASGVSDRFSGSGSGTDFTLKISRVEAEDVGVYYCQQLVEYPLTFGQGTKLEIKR
*A* 0.00566

*Q* Input H23L13 (antibody, human IgG1, kappa, V domains shown) VH: QVQLVQSGAEVKKPGASVKVSCKASGYTFTSYWMHWVKQRPGQGLEWIGNINPSNGGTNYNEKFKSKATMTVDTSTSTAYMELSSLRSEDTAVYYCELGQGYWGQGTLVTVSS VL: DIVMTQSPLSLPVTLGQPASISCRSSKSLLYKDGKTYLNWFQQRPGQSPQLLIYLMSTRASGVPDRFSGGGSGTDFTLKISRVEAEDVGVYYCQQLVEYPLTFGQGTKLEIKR
*A* 0.00956

*Q* Input H23L16 (antibody, human IgG1, kappa, V domains shown, human gamma1 mutated constant region, human kappa) VH: QVQLVQSGAEVKKPGASVKVSCKASGYTFTSYWMHWVKQRPGQGLEWIGNINPSNGGTNYNEKFKSKATMTVDTSTSTAYMELSSLRSEDTAVYYCELGQGYWGQGTLVTVSS VL: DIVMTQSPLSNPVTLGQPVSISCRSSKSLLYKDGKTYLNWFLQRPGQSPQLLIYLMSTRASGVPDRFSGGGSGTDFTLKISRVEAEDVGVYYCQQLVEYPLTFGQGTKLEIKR
*A* 0.00606

*Q* Input H23Lc (antibody, human IgG1, kappa, V domains shown) VH: QVQLVQSGAEVKKPGASVKVSCKASGYTFTSYWMHWVKQRPGQGLEWIGNINPSNGGTNYNEKFKSKATMTVDTSTSTAYMELSSLRSEDTAVYYCELGQGYWGQGTLVTVSS VL: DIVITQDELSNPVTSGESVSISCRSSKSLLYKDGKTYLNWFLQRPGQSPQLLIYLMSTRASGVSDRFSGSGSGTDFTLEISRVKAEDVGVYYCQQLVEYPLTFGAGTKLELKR
*A* 0.00342
